Taken from ChEMBL document CHEMBL5614376.

Target: Alpha-1A adrenergic receptor (Homo sapiens) (UniProt P35348)
Sequence (P35348 whole entry): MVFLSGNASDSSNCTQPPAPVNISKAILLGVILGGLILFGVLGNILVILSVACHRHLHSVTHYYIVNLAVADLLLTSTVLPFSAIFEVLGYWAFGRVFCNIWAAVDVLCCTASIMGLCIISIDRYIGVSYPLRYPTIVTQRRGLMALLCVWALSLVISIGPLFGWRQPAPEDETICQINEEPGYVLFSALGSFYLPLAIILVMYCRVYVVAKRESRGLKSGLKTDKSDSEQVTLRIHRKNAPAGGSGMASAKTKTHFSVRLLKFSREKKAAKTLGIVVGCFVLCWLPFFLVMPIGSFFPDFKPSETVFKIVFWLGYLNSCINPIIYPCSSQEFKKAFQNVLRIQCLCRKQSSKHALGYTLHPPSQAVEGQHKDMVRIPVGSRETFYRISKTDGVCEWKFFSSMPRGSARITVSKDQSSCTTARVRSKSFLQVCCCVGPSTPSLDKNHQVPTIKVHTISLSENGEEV
Test: Displacement of [3H]prazosin from recombinant human alpha 1A adrenoceptor extracted from CHO cell membrane at 1 nM incubated for 60 mins by radioligand binding assay relative to control
Assay type: cell membranes
This listing pairs molecules with measured inhibition.
Give the value in % but do not write % after it.

1) Clc1cccc(N2CCN(CCCCn3cnc4ccccc43)CC2)c1 = 15.4
2) FC(F)(F)c1cccc(N2CCN(CCCCn3nc4ccccc4n3)CC2)c1 = -7.22
3) Fc1ccc2c(C3CCN(CCCn4nnc5ccccc54)CC3)noc2c1 = 39.8

Lab note: next molecule to report on.
(Q) Output inhibition of c1ccc2c(c1)ncn2CCCN1CCN(c2nsc3ccccc23)CC1
(A) 24.6

---

Biological target: 5-hydroxytryptamine receptor 2A (Homo sapiens)
Sequence (P28223 whole entry): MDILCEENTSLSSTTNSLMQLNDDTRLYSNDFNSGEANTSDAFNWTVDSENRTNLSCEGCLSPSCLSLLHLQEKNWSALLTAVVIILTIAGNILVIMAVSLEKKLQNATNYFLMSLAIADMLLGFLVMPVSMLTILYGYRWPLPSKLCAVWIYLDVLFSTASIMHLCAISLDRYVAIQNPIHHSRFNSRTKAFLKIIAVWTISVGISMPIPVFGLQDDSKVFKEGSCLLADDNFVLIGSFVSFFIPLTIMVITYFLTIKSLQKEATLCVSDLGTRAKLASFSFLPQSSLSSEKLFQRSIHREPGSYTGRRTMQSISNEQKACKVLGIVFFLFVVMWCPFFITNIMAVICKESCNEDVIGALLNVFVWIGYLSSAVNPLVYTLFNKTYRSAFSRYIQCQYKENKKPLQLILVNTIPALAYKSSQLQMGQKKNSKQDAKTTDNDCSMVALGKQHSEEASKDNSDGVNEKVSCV
Test: Displacement of [3H]Ketanserin from recombinant human 5-HT2A receptor extracted from CHO cell membrane at 1 nM incubated for 60 mins by radioligand binding assay relative to control
Format: cell membranes
This listing pairs compounds with measured inhibition.
Give the value in % but do not write % after it.

Illustrative cases are given below, each with its answer.
1) FC(F)(F)c1cccc(N2CCN(CCCCCCn3nnc4ccccc43)CC2)c1 = -9.54
2) Fc1ccc2c(N3CCN(CCCCn4cnc5ccccc54)CC3)noc2c1 = 22.6
3) Fc1ccc2c(N3CCN(CCCn4nc5ccccc5n4)CC3)noc2c1 = 5.91
4) c1ccc2nn(CCCCN3CCN(c4nsc5ccccc45)CC3)nc2c1 = -9.49

(Q) Output inhibition of Fc1ccc2c(C3CCN(CCCCn4cnc5ccccc54)CC3)noc2c1
(A) -3.85

(Q) Output inhibition of Fc1ccc2c(C3CCN(CCCCn4nc5ccccc5n4)CC3)noc2c1
(A) -5.42
